Tested on: Staphylococcus aureus
ASSAY SUMMARY: microbe, parasite or virus in culture
REPORTED CONDITIONS: ATCC 25923, 24 h
Description: Antibacterial activity against Staphylococcus aureus ATCC 25923 after 24 hrs by geometric microdilution method
MIC listing for selected compounds.
MEASURED QUANTITY: MIC

CCCCCCCCCCCCCCCCCCO[C@@H]1[C@@H](O)[C@H](O[C@H]2O[C@H](CN)[C@@H](O)[C@H](O)[C@H]2N)[C@@H](N)C[C@H]1N | > 128 µg/mL
NC[C@H]1O[C@H](O[C@H]2[C@H](O)[C@@H](OCCCCc3ccc4ccccc4c3)[C@H](N)C[C@@H]2N)[C@H](N)[C@@H](OCCCCc2ccc3ccccc3c2)[C@@H]1O | 2 µg/mL
NC[C@H]1O[C@H](O[C@H]2[C@H](O)[C@@H](OCCCCCCc3ccc4ccccc4c3)[C@H](N)C[C@@H]2N)[C@H](N)[C@@H](OCCCCCCc2ccc3ccccc3c2)[C@@H]1O | 64 µg/mL
NC[C@H]1O[C@H](O[C@H]2[C@H](O)[C@@H](OCc3ccc4ccccc4n3)[C@H](N)C[C@@H]2N)[C@H](N)[C@@H](OCc2ccc3ccccc3n2)[C@@H]1OCc1ccc2ccccc2n1 | 128 µg/mL
CCCCCCCCCO[C@@H]1[C@@H](N)[C@@H](O[C@H]2[C@H](O)[C@@H](OCCCCCCCCC)[C@H](N)C[C@@H]2N)O[C@H](CN)[C@H]1O | 2 µg/mL

====

MIC listing for selected compounds.
Tested on: Staphylococcus aureus
ASSAY SUMMARY: Antibacterial activity against vancomycin-resistant Staphylococcus aureus VRS2 after 24 hrs by geometric microdilution method
Type: functional
REPORTED CONDITIONS: VRS2, 24 h
MEASURED QUANTITY: MIC

NC[C@H]1O[C@H](O[C@H]2[C@H](O)[C@@H](OCCCc3ccc4ccccc4c3)[C@H](N)C[C@@H]2N)[C@H](N)[C@@H](OCCCc2ccc3ccccc3c2)[C@@H]1OCCCc1ccc2ccccc2c1 | > 128 µg/mL
NC[C@H]1O[C@H](O[C@H]2[C@H](O)[C@@H](OCCCCCCc3ccc4ccccc4c3)[C@H](N)C[C@@H]2N)[C@H](N)[C@@H](OCCCCCCc2ccc3ccccc3c2)[C@@H]1O | > 128 µg/mL
CCCCO[C@@H]1[C@@H](N)[C@@H](O[C@H]2[C@H](O)[C@@H](OCCCC)[C@H](N)C[C@@H]2N)O[C@H](CN)[C@H]1OCCCC | > 128 µg/mL

====

MIC listing for selected compounds.
Tested on: Staphylococcus aureus
ASSAY SUMMARY: Antibacterial activity against Staphylococcus aureus expressing aminoglycoside-6'-N-acetyltransferase/2''-O-phosphoryltransferase after 24 hrs by geometric microdilution method
Type: functional
MEASURED QUANTITY: MIC

NC[C@@H]1O[C@H](O[C@H]2[C@@H](O)[C@H](O[C@@H]3[C@@H](O)[C@H](N)C[C@H](N)[C@H]3O[C@H]3O[C@H](CN)[C@@H](O)[C@H](O)[C@H]3N)O[C@@H]2CO)[C@H](N)[C@@H](O)[C@@H]1O | 1 µg/mL
CCCCCCCCCCCCCCCCCCO[C@@H]1[C@@H](O)[C@H](O[C@H]2O[C@H](CN)[C@@H](O)[C@H](O)[C@H]2N)[C@@H](N)C[C@H]1N | > 256 µg/mL
CCCCO[C@@H]1[C@@H](N)[C@@H](O[C@H]2[C@H](O)[C@@H](OCCCC)[C@H](N)C[C@@H]2N)O[C@H](CN)[C@H]1OCCCC | > 128 µg/mL
N[C@H]1[C@@H](O[C@H]2[C@H](O)[C@@H](O)[C@H](N)C[C@@H]2N)O[C@H](CO)[C@@H](O)[C@@H]1O | > 128 µg/mL
